Tested on: Wild type
Assay: S. aureus survival, RN4220 and DeltatarO strains – OD600, teichoic acid synthesis inhibitors, primary screen (AID 463173)
Settings: S. aureus RN4220 wild type/DeltatarO growth, OD600, 18 h, hits give low values, screened at 18.75 µg/mL (by protocol)
Screen size: about 52,000 compounds; about 1,700 (3.3%) were called active. For the sample, actives were picked, then their nearest neighbours and some compounds at random.
Measure: survival (%)
The answer is to be given in %; state only the numeric part.

As a guide, the following entries are already answered.
>>> print(df.to_string())
                                   compound  measured_on  unit_abbreviation  reported_result
0  O=S(=O)(c1ccc(Cl)cc1)c1nc(-c2cccs2)oc1N1CCCCC1    Wild type                  %               45
1  CCOC(=O)c1ccc(NS(=O)(=O)c2cc(Br)cc3c2N(C(C)=O)C(C)C3)cc1 (stereo unspecified)    Wild type                  %               83
2  O=S(=O)(c1ccccc1)c1nc(-c2cccs2)oc1N1CCCCC1    Wild type                  %              123
3  Cc1ccc(S(=O)(=O)c2nc(-c3cccs3)oc2N2CCC(C)CC2)cc1    Wild type                  %              -10
4  Cc1ccc(S(=O)(=O)c2nc(-c3cccs3)oc2N2CCCCC2)cc1    Wild type                  %               50

query: Can you look up the measured survival of `O=C(COc1ccccc1)NCc1ccc2c(c1)CCN2C(=O)c1ccc(Cl)cc1` for me?
result: 82

query: Now the compound `CC(C)COc1ccc(C(=O)Nc2cc3nn(-c4ccccc4)nc3cc2Cl)cc1`
result: 57

query: Please do the same for `COc1ccc(Cl)cc1NC(=O)CCC(=O)N1CCOc2ccccc21` as well.
result: 83

query: // next record `Cn1c(=O)c(=O)n(C)c2cc(N3CCCC3)c(NC(=O)c3ccccc3Cl)cc21`
result: 86

query: Now the compound `COc1nnc(-c2ccc(N3CCCCC3)c(NC(=O)c3ccc(C)cc3)c2)c2ccccc12`
result: 36

----------
# reported survival; entries follow
Test system: Wild type
Assay: S. aureus survival, RN4220 and DeltatarO strains – OD600, teichoic acid synthesis inhibitors, primary screen (AID 463173)
Conditions: S. aureus RN4220 wild type/DeltatarO growth, OD600, 18 h, hits give low values, screened at 18.75 µg/mL (by protocol)
Screen size: about 52,000 compounds; about 1,700 (3.3%) were called active. This is one part of a sample in which actives are shown more often than they occur.

Below: 8 compounds and their reported survival.
>>> df
                                   compound   measure  reported_result
0  CCOc1ccc(CC(=O)NCCc2sc3nc(-c4ccc(F)cc4)nn3c2C)cc1  survival   71% (inactive)
1  O=C(Cc1ccc(Cl)cc1)NCCc1csc2nc(-c3ccccc3F)nn12  survival   69% (inactive)
2  COc1ccccc1C(=O)NCCn1cc(SCc2ccccc2Cl)c2ccccc21  survival   28% (inactive)
3  CC1CCN(S(=O)(=O)c2ccc3c(ccc(=O)n3CC(=O)NCc3ccccc3)c2)CC1  survival   22% (inactive)
4  CN(C)CC(O)C1CCOC(C)(C)C1 (stereo unspecified)  survival  111% (inactive)
5  CC(=O)c1cccc(Nc2ccc3cc(S(=O)(=O)N4CCCC4)ccc3n2)c1  survival   73% (inactive)
6  Cc1ccc(NC(=O)Cn2c(=O)ccc3cc(S(=O)(=O)N4CCCC4)ccc32)cc1N(C)C  survival      0% (active)
7  COc1ccc(C(=O)NCCn2cc(SCc3cccc(F)c3)c3ccccc32)cc1OC  survival   68% (inactive)

query: Item `Cc1cc(C)n2nc(SCC(=O)Nc3cccc(C(F)(F)F)c3)nc2n1` has what recorded survival?
result: 56% (inactive)

query: Same question for `O=C(NCCn1cc(SCc2ccc(C(F)(F)F)cc2)c2ccccc21)c1ccccc1F` please.
result: 35% (inactive)

query: What about this compound? `CC(=O)Nc1ccc(NC(=O)Cn2c(=O)ccc3cc(S(=O)(=O)N4CCC(C)CC4)ccc32)cc1`
result: 91% (inactive)

query: What would you report for `CCOC(=O)c1cccc(Nc2ccc3cc(S(=O)(=O)N4CCCCC4)ccc3n2)c1` ?
result: -3% (active)

query: Now consider `O=S(=O)(c1ccc2nc(Nc3cccc(F)c3)ccc2c1)N1CCCC1` and answer again.
result: 75% (inactive)

query: Next record, please: `CC1CCN(S(=O)(=O)c2ccc3c(ccc(=O)n3CC(=O)NCc3ccc(Cl)cc3)c2)CC1`
result: 59% (inactive)

query: Okay, and `COc1ccccc1C(=O)NCCn1cc(SCc2ccc(C)cc2)c2ccccc21` ?
result: 3% (active)

query: Try this compound next: `CCc1ccc(NC(=O)Cn2c(=O)ccc3cc(S(=O)(=O)N4CCCC4)ccc32)cc1`
result: 148% (inactive)

query: // next record `Cc1ccc(CSc2cn(CCNC(=O)c3cccs3)c3ccccc23)cc1`
result: 62% (inactive)

----------
Tested on: Wild type
Test: S. aureus survival, RN4220 and DeltatarO strains – OD600, teichoic acid synthesis inhibitors, primary screen (AID 463173)
Details: S. aureus RN4220 wild type/DeltatarO growth, OD600, 18 h, screened at 18.75 µg/mL (by protocol)
Screen size: about 52,000 compounds; about 1,700 (3.3%) were called active. No stated cut-off is given here; in the data, active means survival mostly below about 52% (no sharp cut-off); inactive means mostly above about 56%. The list comes from a sample in which actives are over-represented; it also holds close analogues and randomly drawn compounds.
Permitted responses: active, inactive

Here's what some known entries look like.
In [3]: df
Out[3]:
                                   compound  discrete_label
0  O=C(NCc1ccccc1)C(=O)NCC(c1ccco1)S(=O)(=O)c1cccs1 (stereo not given)        inactive
1  Cc1ccc(C)c(Cn2nc(C)n3c(cc4cc(C)ccc43)c2=O)c1        inactive

query: Name the outcome recorded for `Cc1ccc(CNC(=O)c2ccc3c(O)c(S(=O)(=O)c4ccccc4)c(=O)[nH]c3c2)cc1` in the assay.
result: inactive

query: For O=C(NCc1ccc(F)cc1)C(=O)NCC(c1ccco1)S(=O)(=O)c1cccs1 (stereo not given) then?
result: active

query: Next up: `COc1cccc(Nc2sc(C(=O)c3ccc(Cl)cc3)c(N)c2C(=O)NCCc2ccc(OC)c(OC)c2)c1`
result: inactive

----------
Tested on: Wild type
Experiment: S. aureus survival, RN4220 and DeltatarO strains – OD600, teichoic acid synthesis inhibitors, primary screen (AID 463173)
Conditions: S. aureus RN4220 wild type/DeltatarO growth, OD600, 18 h, screened at 18.75 µg/mL (by protocol)
The whole screen tested about 52,000 compounds, of which about 1,700 (3.3%) were called active. Cut-off read from the data, not from the text of the source: active = survival mostly below about 52% (no sharp cut-off); inactive = mostly above about 56%. The full list was thinned out, with actives kept by preference.
Outcomes you can answer with include only these: true (1) for active, false (0) for inactive

                                   compound  discrete_label
0  COc1ccc(NC(=O)C2=C(C)Nc3ncnn3C2c2ccc[nH]2)cc1 (configuration not stated)       false (0)
1  CCc1nn(CC(=O)Nc2ccc(C)c(F)c2)c(=O)c2cc3cc(C)ccc3n12       false (0)
2  O=C(c1cc2c(=O)oc3ccccc3c2s1)N1CCN(c2cccc(Cl)c2)CC1       false (0)
3  Cc1ccc(C(=O)Nc2ccccc2C(=O)OCc2cc(=O)n3nc(C4CC4)sc3n2)cc1       false (0)
4       CCOC(=O)c1noc2ncnc(NCc3ccccc3OC)c12       false (0)

query: Could you check what this test reported for CCOc1ccc2nc(N3CCCC(C(=O)Nc4ccc(OC)c(Cl)c4)C3)sc2c1 (configuration not stated) ?
result: false (0)

query: Another compound to check: COc1ccccc1NC(=O)C1=C(C)Nc2ncnn2C1c1cccn1C (configuration not stated)
result: true (1)

----------
System: Wild type
Test: S. aureus survival, RN4220 and DeltatarO strains – OD600, teichoic acid synthesis inhibitors, primary screen (AID 463173)
Conditions: S. aureus RN4220 wild type/DeltatarO growth, OD600, 18 h, hits give low values, screened at 18.75 µg/mL (by protocol)
Among all 52,000 compounds or so, about 1,700 (3.3%) were called active. Only a selection was taken, and actives are over-represented in it overall.
The threshold is 70%. Values of survival beneath it are tagged rule met; values meeting or exceeding it are tagged rule not met.

Examples with answers:
                                   molecule  measured_on  discrete_label
0  CCOC(=O)c1cnc2c(C)c(Cl)ccc2c1NCCc1ccccc1    Wild type        rule met
1              CC(=O)Oc1cn(C(C)=O)c2ccccc12    Wild type    rule not met
2  CCOC(=O)N1CCN(C(=O)c2cnn(-c3cccc(F)c3)c2-n2cccc2)CC1    Wild type    rule not met
3  COc1ccc(OC)c(NC(=O)c2cc(=O)c3c(C)cc(C)cc3o2)c1    Wild type    rule not met

Consider the record given below.
query: Decide: survival of `CCCn1c2ccccc2c2cnn(CC(=O)N3CCC(C)CC3)c(=O)c21` strictly below 70%?
result: rule met

The reported measurements were obtained from PubChem BioAssay AID463173.
